assayed-target: T1, human CD3 E&D complex protein (Sino Biological Inc., CT026H0323H) (human, UniProt P07766 23-126; P04234 22-105)
T1 construct: bought heterodimer; also called human CD3 protein (CT026H0323H)
T1 sequence (P07766 23-126, chain 1 of 2): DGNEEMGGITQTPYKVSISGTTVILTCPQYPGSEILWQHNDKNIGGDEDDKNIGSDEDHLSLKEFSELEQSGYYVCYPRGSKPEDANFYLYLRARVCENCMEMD
T1 sequence (P04234 22-105, chain 2 of 2): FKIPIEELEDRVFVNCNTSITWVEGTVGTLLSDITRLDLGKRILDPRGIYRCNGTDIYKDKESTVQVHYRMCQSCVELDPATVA
test-summary: BLI, antibody on sensor
assay-endpoint: kon (M⁻¹ s⁻¹)
Please reply with the bare figure in M⁻¹ s⁻¹ and do not write the unit itself.

# example entries with known answers
1) hzsp34.108 (antibody, human IgG1, lambda, L234A L235A, V domains shown, CDR mutant of hzsp34.24; IgG1 L234A L235A, lambda) VH: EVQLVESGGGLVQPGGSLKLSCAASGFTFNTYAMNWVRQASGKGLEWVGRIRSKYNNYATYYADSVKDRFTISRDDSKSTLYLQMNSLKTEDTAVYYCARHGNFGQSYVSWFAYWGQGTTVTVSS VL: QAVVTQEPSLTVSPGGTVTLTCRSSTGAVTTSNYANWVQQKPGQAPRGLIGGTNKRAPGVPARFSGSLLGDKAALTLLGAQPEDEAEYYCALWASNLWVFGQGTKLTVLG
207000
2) hzsp34.100 (antibody, human IgG1, lambda, L234A L235A, V domains shown, CDR mutant of hzsp34.24; IgG1 L234A L235A, lambda) VH: EVQLVESGGGLVQPGGSLKLSCAASGFTFNTYAMNWVRQASGKGLEWVGRIRSKYNNYATYYADSVKDRFTISRDDSKSTLYLQMNSLKTEDTAVYYCARHGNFGGRYVSWFAYWGQGTTVTVSS VL: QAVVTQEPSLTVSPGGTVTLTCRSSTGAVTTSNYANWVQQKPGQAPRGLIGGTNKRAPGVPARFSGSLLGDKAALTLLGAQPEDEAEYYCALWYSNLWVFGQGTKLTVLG
243000
3) hzsp34.103 (antibody, human IgG1, lambda, L234A L235A, V domains shown, CDR mutant of hzsp34.24; IgG1 L234A L235A, lambda) VH: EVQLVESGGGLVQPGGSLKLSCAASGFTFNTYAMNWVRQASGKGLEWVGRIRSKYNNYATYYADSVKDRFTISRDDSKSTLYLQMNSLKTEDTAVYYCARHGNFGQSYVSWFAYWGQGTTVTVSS VL: QAVVTQEPSLTVSPGGTVTLTCRSSTGAVGTSNYANWVQQKPGQAPRGLIGGTNKRAPGVPARFSGSLLGDKAALTLLGAQPEDEAEYYCALWYSNLWVFGQGTKLTVLG
243000
4) hzsp34.87 (antibody, human IgG1, lambda, L234A L235A, V domains shown, CDR mutant of hzsp34.24; IgG1 L234A L235A, lambda) VH: EVQLVESGGGLVQPGGSLKLSCAASGFTFNTYAMNWVRQASGKGLEWVGRIRSKYNNYATYYADSVKDRFTISRDDSKSTLYLQMNSLKTEDTAVYYCARHYNFGQSYVSWFAYWGQGTTVTVSS VL: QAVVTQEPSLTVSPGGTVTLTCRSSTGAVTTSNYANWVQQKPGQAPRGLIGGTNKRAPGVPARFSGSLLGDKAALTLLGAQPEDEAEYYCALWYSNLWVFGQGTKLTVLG
173000

Exam item: Can you share its kon? I mean this binder: hzsp34.104 (antibody, human IgG1, lambda, L234A L235A, V domains shown, CDR mutant of hzsp34.24; IgG1 L234A L235A, lambda) VH: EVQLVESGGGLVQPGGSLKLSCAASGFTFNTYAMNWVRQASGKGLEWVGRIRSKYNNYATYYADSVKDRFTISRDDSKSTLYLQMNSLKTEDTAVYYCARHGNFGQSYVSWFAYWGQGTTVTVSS VL: QAVVTQEPSLTVSPGGTVTLTCRSSTGAVTGSNYANWVQQKPGQAPRGLIGGTNKRAPGVPARFSGSLLGDKAALTLLGAQPEDEAEYYCALWYSNLWVFGQGTKLTVLG
Marked response: 281000

Exam item: Entry hzsp34.112 (antibody, human IgG1, lambda, L234A L235A, V domains shown, CDR mutant of hzsp34.24; IgG1 L234A L235A, lambda) VH: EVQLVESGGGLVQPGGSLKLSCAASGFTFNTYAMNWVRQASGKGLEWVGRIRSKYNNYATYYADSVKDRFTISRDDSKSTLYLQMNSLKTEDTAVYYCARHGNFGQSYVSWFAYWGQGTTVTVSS VL: QAVVTQEPSLTVSPGGTVTLTCRSSTGAVTTRGYANWVQQKPGQAPRGLIGGTNKRAPGVPARFSGSLLGDKAALTLLGAQPEDEAEYYCALWYSNLWVFGQGTKLTVLG please
Marked response: 282000

Exam item: Entry hzsp34.114 (antibody, human IgG1, lambda, L234A L235A, V domains shown, CDR mutant of hzsp34.24; IgG1 L234A L235A, lambda) VH: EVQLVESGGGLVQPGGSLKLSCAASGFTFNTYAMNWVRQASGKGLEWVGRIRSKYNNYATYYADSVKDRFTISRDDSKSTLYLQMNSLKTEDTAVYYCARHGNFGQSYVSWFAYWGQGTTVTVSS VL: QAVVTQEPSLTVSPGGTVTLTCRSSTGAVTTSNYANWVQQKPGQAPRGLIGGTNKRAPGVPARFSGSLLGDKAALTLLGAQPEDEAEYYCALWYRGLWVFGQGTKLTVLG please
Marked response: 262000
